B1: 6YSE (parent)
chain: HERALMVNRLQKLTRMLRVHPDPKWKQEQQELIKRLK

Variants of: B1
Assay: folding stability dG (cDNA display proteolysis); higher = more stable
Settings: PBS, room temperature
experimental.readout: folding stability dG
Don't forget the unit after the number, please.

R15N 1 kcal/mol
W25G 0.387 kcal/mol
Q30Y 1.04 kcal/mol
Q11H 1.38 kcal/mol
K37L 1.42 kcal/mol

Ask: Tell us which folding stability dG value is on record for `K34S`
Reply: 1.07 kcal/mol

Ask: Return folding stability dG for the following variant: `M16L`
Reply: 1.35 kcal/mol

Ask: Fill in reported folding stability dG for this entry: `E31A`
Reply: 1.2 kcal/mol

Ask: Please give measured folding stability dG of the following entry: `R18H`
Reply: 0.59 kcal/mol
